Assay: Determination of log D7.4 (1-octanol / Tris-HCl buffer)
Assay type: physicochemical
Conditions: 1-octanol / 20 mM Tris-HCl buffer containing 150 mM NaCl (pH = 7.4) (1/1, v/v)
Documented logD at 3 min across a set of compounds
experimental_endpoint: logD at 3 min

1. CC(C)(c1ccc2c(Cl)ccc(O)c2n1)c1ccc2c(Cl)ccc(O)c2n1 [Compound 4] : 4.9
2. Oc1cccc2ccc(CC(Cc3ccc4cccc(O)c4n3)c3ccc4cccc(O)c4n3)nc12 [Compound 11] : 3.7
3. Oc1c(I)cc(Cl)c2ccc(CCc3ccc4c(Cl)cc(I)c(O)c4n3)nc12 [Compound 9] : 5.6
4. Cc1ccc2cccc(NCCNc3cccc4ccc(C)nc34)c2n1 [Compound 14] : 1.8
5. c1cnc2c(NCCCNc3cccc4cccnc34)cccc2c1 [Compound 13, N,N′-di-8-quinolinyl-1,3-propanediamine] : 2.7
6. Nc1cccc2cccnc12 [8-aminoquinoline, reference compound] : 1.9
7. Oc1cccc2ccc(CCc3ccc4cccc(O)c4n3)nc12 [Compound 7] : 3.5
8. O=C(Nc1ccc2cccc(O)c2n1)c1ccc2cccc(O)c2n1 [Compound 18] : 3
9. Oc1ccc(Cl)c2ccc(Cc3ccc4c(Cl)ccc(O)c4n3)nc12 [Compound 2] : 3.5
10. Cc1ccc2cccc(O)c2n1 [8-hydroxyquinaldine, reference compound] : 2.4
11. O=C(Nc1cccc2cccnc12)c1cccc2cccnc12 [Compound 24, N-8-quinolinyl-8-quinoline carboxamide] : 2.6
12. Oc1cccc2ccc(Cc3ccc4cccc(O)c4n3)nc12 [Compound 1, 2,2′-methanediyl-bis(8-hydroxyquinoline)] : 3.3
13. c1cnc2c(Oc3cccc4cccnc34)cccc2c1 [Compound 15, 8,8′-Oxydiquinoline] : 2
14. Oc1cccc2ccc(CCCCc3ccc4cccc(O)c4n3)nc12 [Compound 10] : 3.8
15. COc1ccc2ccc(CCc3ccc4ccc(OC)c(O)c4n3)nc2c1O [Compound 17] : 3.5
16. Oc1cccc2ccc(C(F)(F)c3ccc4cccc(O)c4n3)nc12 [Compound 5] : 3.8
17. CC(C)(c1ccc2cccc(O)c2n1)c1ccc2cccc(O)c2n1 [Compound 3] : 4.4
18. Oc1c(I)cc(Cl)c2cccnc12 [Clioquinol, reference compound] : 3.8
19. Oc1cccc2cccnc12 [8-hydroxyquinoline, reference compound] : 2.1
20. CCCCN(c1ccc2cccc(N)c2n1)c1ccc2cccc(N)c2n1 [Compound 23] : 2.5

----------
Documented ZnCl2 % soluble Aβ across a set of compounds
Target: Aβ1-42 (Homo sapiens)
Construct: The β-amyloid peptide Aβ1-42 (Aβ1-42) was synthesised, purified (to a purity greater than 95%); made in house; host or cells: chemical peptide synthesis (no expression host)
Assay: Inhibition of the precipitation of Aβ1-42 by the addition of ligand (Micro BCA assay of soluble/aggregated peptide)
Assay type: biochemical
Conditions: Aβ1-42 5 μM, 20 μM ZnCl2, 1 h 37° C. then 1 h with 200 μM ligand, pH 7.4
experimental_endpoint: ZnCl2 % soluble Aβ (%)

1. Oc1ccc(Cl)c2ccc(CCc3ccc4c(Cl)ccc(O)c4n3)nc12 : 58
2. c1cnc2c(NCCCNc3cccc4cccnc34)cccc2c1 : 57
3. Oc1ccc(Cl)c2ccc(Cc3ccc4c(Cl)ccc(O)c4n3)nc12 : 57
4. Oc1cccc2ccc(Cc3ccc4cccc(O)c4n3)nc12 [Compound 1, 2,2′-methanediyl-bis(8-hydroxyquinoline)] : 63
5. Cc1ccc2cccc(NCCNc3cccc4ccc(C)nc34)c2n1 : 57
6. c1cnc2c(Nc3cccc4cccnc34)cccc2c1 : 52
7. Oc1cccc2cccnc12 [8-hydroxyquinoline, reference compound] : 88
8. Oc1c(I)cc(Cl)c2ccc(CCc3ccc4c(Cl)cc(I)c(O)c4n3)nc12 : 47
9. Oc1cccc2ccc(CCc3ccc4cccc(O)c4n3)nc12 : 60
10. c1cnc2c(Oc3cccc4cccnc34)cccc2c1 : 23
11. O=C(Nc1ccc2cccc(O)c2n1)c1ccc2cccc(O)c2n1 : 62
12. Cc1ccc2cccc(O)c2n1 [8-hydroxyquinaldine, reference compound] : 62
13. COc1ccc2ccc(CCc3ccc4ccc(OC)c(O)c4n3)nc2c1O : 42
14. CCCCN(c1ccc2cccc(N)c2n1)c1ccc2cccc(N)c2n1 : 58
15. COc1ccc2ccc(Cc3ccc4ccc(OC)c(O)c4n3)nc2c1O.Cl.Cl : 50
16. Oc1cccc2ccc(CC(Cc3ccc4cccc(O)c4n3)c3ccc4cccc(O)c4n3)nc12 : 45

----------
Biological target: copper complexes of Aβ1-42 peptide (Homo sapiens)
Construct: The β-amyloid peptide Aβ1-42 (Aβ1-42) was synthesised, purified (to a purity greater than 95%); made in house; host or cells: chemical peptide synthesis (no expression host)
Sequence (P05067 672-713 limits assumed, one chain of several): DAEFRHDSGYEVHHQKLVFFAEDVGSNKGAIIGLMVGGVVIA
Assay: Stability of H2O2 during the H2O2 production inhibition experiments (known amount of H2O2 added)
Type: biochemical
Settings: Aβ1-42 0.2 μM, Cu(II) 0.4 μM, ascorbate 10 μM, ligand 0.4 μM, no H2O2 added
Documented H2O2 assayed across a set of molecules
experimental_endpoint: H2O2 assayed (nmol)

1. c1cnc2c(Nc3cccc4cccnc34)cccc2c1 [Compound 12, Bis(8-quinoline)amine] : 0.47
2. O=C(c1ccc2cccc(O)c2n1)c1ccc2cccc(O)c2n1 [Compound 6, Bis(8-hydroxy-2-quinoline)methanone] : 0.87
3. CC(C)(c1ccc2cccc(O)c2n1)c1ccc2cccc(O)c2n1 [Compound 3] : 0.71
4. Oc1cccc2ccc(C(F)(F)c3ccc4cccc(O)c4n3)nc12 [Compound 5] : 0.55
5. CC(C)(c1ccc2c(Cl)ccc(O)c2n1)c1ccc2c(Cl)ccc(O)c2n1 [Compound 4] : 0.37
6. Cc1ccc2cccc(NCCNc3cccc4ccc(C)nc34)c2n1 [Compound 14] : 1.99

----------
Documented ZnCl2 % soluble Aβ across a set of molecules
Biological target: Aβ1-42 (Homo sapiens)
Construct: The β-amyloid peptide Aβ1-42 (Aβ1-42) was synthesised, purified (to a purity greater than 95%); made in house; host or cells: chemical peptide synthesis (no expression host)
Test: Inhibition of the precipitation of Aβ1-42 by the addition of ligand (Micro BCA assay of soluble/aggregated peptide)
Format: biochemical
Settings: Aβ1-42 5 μM, 20 μM ZnCl2, 1 h 37° C. then 1 h with 200 μM ligand, pH 7.4
experimental_endpoint: ZnCl2 % soluble Aβ (%)

1) O=C(c1ccc2cccc(O)c2n1)c1ccc2cccc(O)c2n1 [Compound 6, Bis(8-hydroxy-2-quinoline)methanone] : 54
2) CC(C)(c1ccc2c(Cl)ccc(O)c2n1)c1ccc2c(Cl)ccc(O)c2n1 [Compound 4] : 49
3) Oc1cccc2ccc(CCCCc3ccc4cccc(O)c4n3)nc12 [Compound 10] : 43
4) CC(C)(c1ccc2cccc(O)c2n1)c1ccc2cccc(O)c2n1 [Compound 3] : 59
5) O=C(Nc1cccc2cccnc12)c1cccc2cccnc12 [Compound 24, N-8-quinolinyl-8-quinoline carboxamide] : 21
6) Oc1cccc2ccc(C(F)(F)c3ccc4cccc(O)c4n3)nc12 [Compound 5] : 50
7) Oc1c(I)cc(Cl)c2cccnc12 [Clioquinol, reference compound] : 37
8) Nc1cccc2cccnc12 [8-aminoquinoline, reference compound] : 67

----------
System: Salmonella tiphimurium TA98
Test: AMES test, TA98
Details: value per plate; Addition of S9: yes
experimental_endpoint: TA98 Cytotoxicity

1. Oc1cccc2ccc(C(F)(F)c3ccc4cccc(O)c4n3)nc12 : >3000 µg
2. Oc1c(I)cc(Cl)c2cccnc12 [Clioquinol, reference compound] : 300 µg
3. CC(C)(c1ccc2cccc(O)c2n1)c1ccc2cccc(O)c2n1 : >3000 µg
4. c1cnc2c(Nc3cccc4cccnc34)cccc2c1 : >3000 µg

----------
Target: Aβ1-42 (Homo sapiens)
Construct: The β-amyloid peptide Aβ1-42 (Aβ1-42) was synthesised, purified (to a purity greater than 95%); made in house; host or cells: chemical peptide synthesis (no expression host)
Assay: Inhibition of the precipitation of Aβ1-42 by the addition of ligand (Micro BCA assay of soluble/aggregated peptide)
Type: biochemical
Conditions: Aβ1-42 5 μM, 20 μM FeCl3, 1 h 37° C. then 1 h with 200 μM ligand, pH 7.4
experimental_endpoint: FeCl3 % soluble Aβ (%)

1) Oc1cccc2ccc(CCc3ccc4cccc(O)c4n3)nc12 : 40
2) COc1ccc2ccc(Cc3ccc4ccc(OC)c(O)c4n3)nc2c1O.Cl.Cl : 44
3) Cc1ccc2cccc(NCCNc3cccc4ccc(C)nc34)c2n1 : 51
4) Cc1ccc2cccc(O)c2n1 [8-hydroxyquinaldine, reference compound] : 51
5) CCCCN(c1ccc2cccc(N)c2n1)c1ccc2cccc(N)c2n1 : 62
6) CC(C)(c1ccc2cccc(O)c2n1)c1ccc2cccc(O)c2n1 : 60
7) Nc1cccc2cccnc12 [8-aminoquinoline, reference compound] : 58

----------
Molecular target: Aβ1-42 (Homo sapiens)
Construct: The β-amyloid peptide Aβ1-42 (Aβ1-42) was synthesised, purified (to a purity greater than 95%); made in house; host or cells: chemical peptide synthesis (no expression host)
Assay: Inhibition of the precipitation of Aβ1-42 by the addition of ligand (Micro BCA assay of soluble/aggregated peptide)
Format: biochemical
Settings: Aβ1-42 5 μM, 20 μM CuCl2, 1 h 37° C. then 1 h with 200 μM ligand, pH 7.4
experimental_endpoint: CuCl2 % soluble Aβ (%)

1. CC(C)(c1ccc2cccc(O)c2n1)c1ccc2cccc(O)c2n1 : 47
2. O=C(Nc1ccc2cccc(O)c2n1)c1ccc2cccc(O)c2n1 : 46
3. Cc1ccc2cccc(NCCNc3cccc4ccc(C)nc34)c2n1 : 45
4. Oc1cccc2ccc(CCc3ccc4cccc(O)c4n3)nc12 : 35
5. c1cnc2c(NCCCNc3cccc4cccnc34)cccc2c1 : 55
6. Nc1cccc2cccnc12 [8-aminoquinoline, reference compound] : 40
7. Oc1ccc(Cl)c2ccc(Cc3ccc4c(Cl)ccc(O)c4n3)nc12 : 45
